- System: Escherichia coli
- EXPERIMENT_SUMMARY: Antibacterial activity against Escherichia coli ATCC 25922 (CO-ADD:GN_001); MIC in CAMBH media using NBS plates, by Resazurin F(560/590)
- Format: functional
- ASSAY_CONDITIONS: Concentration 20 uM, ASSAY_TEST Inhibition of Bacterial Growth, detection method Resazurin, Fluorescence (ex560/em590), MEDIA CAMHB, plate type 384well, CORNING #3640, time 18 hr
ENDPOINT_NAME: Inhibition

>  <COMPOUND>
COc1ccc(Nc2cc(Cl)ccc2C(=O)O)cn1

>  <OBS_VALUE>
0%

$$$$
>  <COMPOUND>
Clc1ccc(-c2[nH]nc3c2Cc2ccccc2-3)cc1Cl

>  <OBS_VALUE>
-5.11%

$$$$
>  <COMPOUND>
O=C(Nc1cccc2c1N(C(=O)c1ccco1)CCC2)c1ccco1

>  <OBS_VALUE>
4.6%

$$$$
>  <COMPOUND>
COc1ccc(-c2cc(-c3ccccc3)c(-c3ccccc3)nn2)cc1

>  <OBS_VALUE>
6.8%

$$$$
>  <COMPOUND>
ClCC(CNCc1ccccc1)c1ccccc1 (stereo unspecified)

>  <OBS_VALUE>
0.62%

$$$$
>  <COMPOUND>
COc1cc(C(=O)OC(C)CN2CCOCC2)cc(OC)c1OC (stereo unspecified)

>  <OBS_VALUE>
6.24%

$$$$

====

# reported Inhibition; entries follow
- Tested on: Candida albicans
- ASSAY_CONDITIONS: 20 µM
- Description: Antifungal activity against Candida albicans ATCC 90028 (CO-ADD:FG_001); MIC in YNB media using NBS plates, by OD630
Results with a measured potency or affinity are listed apart.
ENDPOINT_NAME: Inhibition (%)

>  <MOLECULE>
CCOC(=O)c1ccc(NC(=O)Oc2cc(C)c(Cl)cc2C(C)C)cc1

>  <OBS_VALUE>
4.36

$$$$
>  <MOLECULE>
CCOC(=O)c1nn(-c2ccccc2)cc1O

>  <OBS_VALUE>
0.93

$$$$
>  <MOLECULE>
CCOC(=O)Nc1ccc2nc(Sc3ccc(Cl)cc3)sc2c1

>  <OBS_VALUE>
10.2

$$$$
>  <MOLECULE>
Cn1ncc2c(Nc3cccc(Cl)c3)nc(Nc3cccc(Cl)c3)nc21

>  <OBS_VALUE>
-1.22

$$$$
>  <MOLECULE>
CCC1(C(=O)OC)CCc2c(cc(OC)c3ccccc23)C1=O (configuration not stated)

>  <OBS_VALUE>
3.67

$$$$
>  <MOLECULE>
c1ccc2nc(NN=C3CCCCC3)ccc2c1

>  <OBS_VALUE>
3.78

$$$$
>  <MOLECULE>
COCC(O)Cn1ccnc1[N+](=O)[O-] (configuration not stated) [MISONIDAZOLE]

>  <OBS_VALUE>
1.35

$$$$
>  <MOLECULE>
COc1ccc(/N=N/c2c(N)n[nH]c2N)cc1

>  <OBS_VALUE>
3.82

$$$$
>  <MOLECULE>
CC(C)(C)C1=NN=C2c3ccccc3C(=O)C21 (configuration not stated)

>  <OBS_VALUE>
5.03

$$$$
>  <MOLECULE>
Cc1ccc([N+](=O)[O-])cc1NC(=O)Nc1cccc(F)c1

>  <OBS_VALUE>
18.3

$$$$
>  <MOLECULE>
Nc1ccc(C(=O)Nc2ccc(NC(=O)c3ccco3)c(O)c2)cc1

>  <OBS_VALUE>
3.85

$$$$
>  <MOLECULE>
O=C(Nc1ccc(C(=O)O)c(O)c1)c1ccccc1 [BENZOYLPAS]

>  <OBS_VALUE>
6.26

$$$$

====

- Tested on: Escherichia coli
- EXPERIMENT_SUMMARY: Antibacterial activity against Escherichia coli ATCC 25922 (CO-ADD:GN_001); MIC in CAMBH media using NBS plates, by Resazurin F(560/590)
- Format: functional
- ASSAY_CONDITIONS: Concentration 20 uM, ASSAY_TEST Inhibition of Bacterial Growth, detection method Resazurin, Fluorescence (ex560/em590), MEDIA CAMHB, plate type 384well, CORNING #3640, time 18 hr

>  <MOLECULE>
NC1=C2C(=O)c3ccccc3C(=O)C2=C(N)CC1

>  <UNIT_SPEC>
%

>  <Inhibition>
-5.53

$$$$
>  <MOLECULE>
CCOC(=O)c1cc(OCC)c2c(ccc3ccccc32)n1

>  <UNIT_SPEC>
%

>  <Inhibition>
-4.9

$$$$
>  <MOLECULE>
CC1=NC(C)(C)CC2CCC(O)C12 (stereo unspecified)

>  <UNIT_SPEC>
%

>  <Inhibition>
9.74

$$$$
>  <MOLECULE>
Cc1ccc(S(=O)(=O)NC(=O)Nc2nccs2)cc1

>  <UNIT_SPEC>
%

>  <Inhibition>
9.78

$$$$
>  <MOLECULE>
COc1ccc(/N=C\c2c(O)ccc3c2oc2cc(Cl)c(O)c(Cl)c23)cc1

>  <UNIT_SPEC>
%

>  <Inhibition>
-4.89

$$$$
>  <MOLECULE>
NNC(=O)CNC(=O)Nc1nnc(S)s1

>  <UNIT_SPEC>
%

>  <Inhibition>
-4.75

$$$$

====

# reported Inhibition; entries follow
- Tested on: Staphylococcus aureus
- EXPERIMENT_SUMMARY: Antibacterial activity against Staphylococcus aureus MRSA ATCC 43300 (CO-ADD:GP_020); MIC in CAMBH media using NBS plates, by Resazurin F(560/590)
- Assay type: functional
- ASSAY_CONDITIONS: Concentration 20 uM, ASSAY_TEST Inhibition of Bacterial Growth, detection method Resazurin, Fluorescence (ex560/em590), MEDIA CAMHB, plate type 384well, CORNING #3640, time 18 hr
ENDPOINT_NAME: Inhibition (%)

>  <MOLECULE>
CCOC(=O)c1cc(-c2cccnc2)nc2c(Cl)cc(Cl)cc12

>  <ENDPOINT_NAME>
Inhibition

>  <OBS_VALUE>
15.12

$$$$
>  <MOLECULE>
CC1(C)SC(C)(C)N(C=O)C1C(=O)O (configuration not stated)

>  <ENDPOINT_NAME>
Inhibition

>  <OBS_VALUE>
-0.19

$$$$
>  <MOLECULE>
Cc1ccc(NC(=O)Nc2cccnc2)cc1NC(=O)Nc1cccnc1

>  <ENDPOINT_NAME>
Inhibition

>  <OBS_VALUE>
4.86

$$$$
>  <MOLECULE>
CCSc1nc(C)c(C)c(O)n1

>  <ENDPOINT_NAME>
Inhibition

>  <OBS_VALUE>
-7.95

$$$$
>  <MOLECULE>
Cc1n[nH]c2nc(N)nn2c1=O

>  <ENDPOINT_NAME>
Inhibition

>  <OBS_VALUE>
-4.36

$$$$
>  <MOLECULE>
Oc1ccc(-c2nc3ccccc3s2)c(O)c1

>  <ENDPOINT_NAME>
Inhibition

>  <OBS_VALUE>
-7.97

$$$$
>  <MOLECULE>
N=C(N)NC(=N)Nc1ccc(O)cc1

>  <ENDPOINT_NAME>
Inhibition

>  <OBS_VALUE>
11.3

$$$$

====

# reported Inhibition; entries follow
- Test system: Acinetobacter baumannii
- EXPERIMENT_SUMMARY: Antibacterial activity against Acinetobacter baumannii ATCC 19606 (CO-ADD:GN_034); MIC in CAMBH media using NBS plates, by Resazurin F(560/590)
- Assay type: functional
- ASSAY_CONDITIONS: Concentration 20 uM, ASSAY_TEST Inhibition of Bacterial Growth, detection method Resazurin, Fluorescence (ex560/em590), MEDIA CAMHB, plate type 384well, CORNING #3640, time 18 hr
ENDPOINT_NAME: Inhibition (%)

>  <COMPOUND>
CC(C)Cc1nnc(N)s1

>  <ENDPOINT_NAME>
Inhibition

>  <OBS_VALUE>
-16.63

$$$$
>  <COMPOUND>
Cn1ncc2c(Nc3ccc([N+](=O)[O-])cc3)nc(Cl)nc21

>  <ENDPOINT_NAME>
Inhibition

>  <OBS_VALUE>
3.27

$$$$
>  <COMPOUND>
COCC(=O)OC1CCn2c1nc1c2C(=O)C(C)=C(NC(C)=O)C1=O (configuration not stated)

>  <ENDPOINT_NAME>
Inhibition

>  <OBS_VALUE>
12.44

$$$$
>  <COMPOUND>
O=C(NCc1ccco1)Nc1ccc([N+](=O)[O-])cc1

>  <ENDPOINT_NAME>
Inhibition

>  <OBS_VALUE>
3.43

$$$$
>  <COMPOUND>
NS(=O)(=O)c1ccc(NC2(C(=O)O)CCCC2)cc1

>  <ENDPOINT_NAME>
Inhibition

>  <OBS_VALUE>
13.36

$$$$
>  <COMPOUND>
Brc1ccc(/N=N/c2ccc3ccccc3n2)cc1

>  <ENDPOINT_NAME>
Inhibition

>  <OBS_VALUE>
4.06

$$$$
>  <COMPOUND>
Cn1cnc([N+](=O)[O-])c1N=C(N)N

>  <ENDPOINT_NAME>
Inhibition

>  <OBS_VALUE>
-2.18

$$$$
>  <COMPOUND>
COC(=O)C1(C(=O)OC)C2C(=O)C3C(C21)C3(C(=O)OC(C)(C)C)C(=O)OC(C)(C)C (configuration not stated)

>  <ENDPOINT_NAME>
Inhibition

>  <OBS_VALUE>
-10.49

$$$$
>  <COMPOUND>
Cc1ccccc1OCC(O)CN1CCN(c2ccc(Cl)cc2)CC1 (configuration not stated)

>  <ENDPOINT_NAME>
Inhibition

>  <OBS_VALUE>
7.24

$$$$
>  <COMPOUND>
COc1ccc(CC(=O)c2ccc(O)cc2O)cc1

>  <ENDPOINT_NAME>
Inhibition

>  <OBS_VALUE>
4.43

$$$$
>  <COMPOUND>
CC(=O)OCCn1c2nc(=O)[nH]c(=O)c-2nc2cc(C)c(C)cc21

>  <ENDPOINT_NAME>
Inhibition

>  <OBS_VALUE>
-11.64

$$$$
>  <COMPOUND>
CCCn1cnc2c(S)nc(N)nc21

>  <ENDPOINT_NAME>
Inhibition

>  <OBS_VALUE>
-16.82

$$$$
